experimental_system: human serum albumin HSA (Homo sapiens, UniProt P02768)
Construct: 4 × 10 mm
Sequence (P02768 25-609): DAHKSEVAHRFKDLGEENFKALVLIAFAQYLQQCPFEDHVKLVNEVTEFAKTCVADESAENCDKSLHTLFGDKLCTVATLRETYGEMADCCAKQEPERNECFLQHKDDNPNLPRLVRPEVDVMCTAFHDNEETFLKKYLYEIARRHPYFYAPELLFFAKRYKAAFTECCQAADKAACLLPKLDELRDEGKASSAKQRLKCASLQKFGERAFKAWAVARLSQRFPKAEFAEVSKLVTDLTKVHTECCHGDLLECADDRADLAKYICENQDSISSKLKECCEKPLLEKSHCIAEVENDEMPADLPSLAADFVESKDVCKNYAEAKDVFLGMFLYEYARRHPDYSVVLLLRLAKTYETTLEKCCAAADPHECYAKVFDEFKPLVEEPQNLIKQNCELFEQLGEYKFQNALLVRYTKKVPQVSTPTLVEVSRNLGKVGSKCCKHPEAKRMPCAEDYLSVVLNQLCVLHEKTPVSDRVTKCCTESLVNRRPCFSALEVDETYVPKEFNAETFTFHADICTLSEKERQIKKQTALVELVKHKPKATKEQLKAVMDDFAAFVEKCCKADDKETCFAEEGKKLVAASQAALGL
protocol_text: HPLC on immobilized human serum albumin column (HPLC-HSA)
Assay type: in vitro ADME
reported_conditions: logarithm of retention factor, mobile phase pH 7.4

{"molecule": "CCOC(=O)C1=C(C)NC(C)=C(C(=O)OC)C1c1cccc([N+](=O)[O-])c1 (stereo not shown)", "log kHSA": 0.55}
{"molecule": "NCC1(CC(=O)O)CCCCC1", "log kHSA": -0.84}
{"molecule": "CO[C@H]1/C=C/O[C@@]2(C)Oc3c(C)c(O)c4c(O)c(c(/C=N/N5CCN(C)CC5)c(O)c4c3C2=O)NC(=O)/C(C)=C\\C=C\\[C@H](C)[C@H](O)[C@@H](C)[C@@H](O)[C@@H](C)[C@H](OC(C)=O)[C@@H]1C", "log kHSA": -1.53}
{"molecule": "CC[C@@H](CO)NCCN[C@@H](CC)CO", "log kHSA": 0.24}
{"molecule": "CN(C)CCC=C1c2ccccc2CCc2ccccc21", "log kHSA": 0.77}
{"molecule": "CC(N)C12CC3CC(CC(C3)C1)C2 (stereo not shown)", "log kHSA": -0.80}
{"molecule": "CCCCN1CCCCC1C(=O)Nc1c(C)cccc1C (stereo not shown)", "log kHSA": 0.07}
{"molecule": "CC(C)C[C@H](CN)CC(=O)O", "log kHSA": -0.87}
{"molecule": "O=C(c1ccccc1)c1ccc2n1CCC2C(=O)O (stereo not shown)", "log kHSA": 0.98}
{"molecule": "CCC1(c2ccccc2)C(=O)NCNC1=O", "log kHSA": -0.66}
{"molecule": "CN(C)CCC=C1c2ccccc2COc2ccccc21 [doxepin]", "log kHSA": 0.63}
{"molecule": "Nc1ccc(O)c(C(=O)O)c1", "log kHSA": -0.73}
{"molecule": "NC(=O)N1c2ccccc2CC(=O)c2ccccc21 [oxcarbamazepine]", "log kHSA": -0.40}
{"molecule": "CNCC[C@H](Oc1cccc2ccccc12)c1cccs1", "log kHSA": 0.91}
{"molecule": "CC(=O)Nc1nnc(S(N)(=O)=O)s1", "log kHSA": -0.13}
{"molecule": "CCS(=O)(=O)CCn1c([N+](=O)[O-])cnc1C", "log kHSA": -0.92}

This collection of values is drawn from paper PMC9913351.
